The measured values listed here are drawn from patent US9540361B2.

# method-notes: Rapid Rat PK after oral administration
# Assay type: in vivo, rats (Rattus Norvegicus)
# assay-setup: 20 umol/kg, AUC(0-6h), plasma, oral 20 μmol/kg, read-out: RRat AUC
observation-type: AUC (µM·h)

>>> val("CCCN1CC(Oc2ccc(C(=C(CC)c3ccccc3)c3ccccc3)cc2)C1.O=C(O)C(F)(F)F [compound 6u]")
1.97

a. CCCN1CC(Oc2ccc(-c3c(-c4ccccc4Cl)noc3-c3ccc(O)cc3)cc2)C1 [compound 6g]
b. CCCN1CC(Oc2ccc(C(=C(CC)c3ccccc3)c3cccc(O)c3)cc2)C1 (mixture of isomers) [compound 6w]
Q: Which of these two has the smaller recorded AUC: a or b ? Label of pick, please.
Ans: b
(b: 1.07 µM·h, a: 2.05 µM·h)
